The values you see were collected from patent US20180030151A1.

- SUBJECT_OF_TEST: recombinant human TFPI (tissue factor pathway inhibitor) (human, UniProt P10646 29-304)
- ASSAY_COMMENT: cell-based or functional assay
// FXa assay OD, 10 nM Ab, 10 nM TFPI lookup, one value per entry
EXPERIMENTAL_READOUT: FXa assay OD, 10 nM Ab, 10 nM TFPI

binder="clone 1001 (antibody, V domains shown) VH: EVQLVESGGGLVKPGGSLRLSCAASGFTFSSYAMNWVRQAPGKGLEWVSTITTGGSYTYYADSVDGRFTISRDNAKNSLYLQMNSLRAEDTAVYYCARQDGNFLMDYWGQGTLVTVSS VL: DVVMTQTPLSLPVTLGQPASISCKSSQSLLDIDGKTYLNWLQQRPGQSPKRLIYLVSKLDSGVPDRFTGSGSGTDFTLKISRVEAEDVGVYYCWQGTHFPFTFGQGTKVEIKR" experimental_readout="FXa assay OD, 10 nM Ab, 10 nM TFPI" measured_number=0.324
binder="clone 1123 (antibody, V domains shown) VH: EVQLVESGGGLVKPGGSLRLSCAASGFTFSSYAMNWVRQAPGKGLEWVSTITTGGSHTYYADSVEGRFTISRDNAKNSLYLQMNSLRAEDTAVYYCARQDGHFLMDYWGQGTLVTVSS VL: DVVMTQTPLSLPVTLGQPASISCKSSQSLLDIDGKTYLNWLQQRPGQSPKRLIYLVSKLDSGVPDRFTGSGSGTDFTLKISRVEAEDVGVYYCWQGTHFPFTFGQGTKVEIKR" experimental_readout="FXa assay OD, 10 nM Ab, 10 nM TFPI" measured_number=0.332
binder="clone 1104 (antibody, V domains shown) VH: EVQLVESGGGLVKPGGSLRLSCAASGFTFSSYAMNWVRQAPGKGLEWVGTITTGGSHTYYADSVQGRFTISRDNAKNSLYLQMNSLRAEDTAVYYCARQDGNFLMDYWGQGTLVTVSS VL: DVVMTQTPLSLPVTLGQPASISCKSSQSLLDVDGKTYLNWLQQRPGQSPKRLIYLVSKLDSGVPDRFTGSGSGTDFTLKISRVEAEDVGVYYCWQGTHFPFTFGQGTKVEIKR" experimental_readout="FXa assay OD, 10 nM Ab, 10 nM TFPI" measured_number=0.29
binder="clone 1023 (antibody, V domains shown, scFv on yeast at selection; human IgG4/kappa IgG as purified) VH: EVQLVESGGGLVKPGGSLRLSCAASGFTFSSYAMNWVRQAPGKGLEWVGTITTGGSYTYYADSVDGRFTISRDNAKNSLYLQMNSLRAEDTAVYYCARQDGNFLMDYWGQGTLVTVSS VL: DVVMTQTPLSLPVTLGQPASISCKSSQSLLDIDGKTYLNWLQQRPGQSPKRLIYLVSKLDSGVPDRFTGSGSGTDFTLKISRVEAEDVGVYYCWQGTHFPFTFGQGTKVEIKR" experimental_readout="FXa assay OD, 10 nM Ab, 10 nM TFPI" measured_number=0.433
